details: 293.15 K; 101.33 kPa; Liquid; Vibrating tube method
observedProperty: mass density (kg/m3)
Quick reminder: number only, in kg/m3, skip the unit.

So for CC(C)COC(=O)[C@@H]1CCC[NH2+]1.CCCCCCCCCCCCOS(=O)(=O)[O-] [(S)-2-(isobutoxycarbonyl)pyrrolidinium dodecyl sulfate] , the logged mass density turned out to be 1039.54

So for CC(C)OC(=O)[C@@H]1CCC[NH2+]1.CCCCCCCCCCCCOS(=O)(=O)[O-] [(S)-2-(isopropoxycarbonyl)pyrrolidin-1-ium dodecyl sulfate] , the logged mass density turned out to be 1050.45

So for CC(C)COC(=O)[C@H](C)[NH3+].CCCCCCCCCCCCOS(=O)(=O)[O-] [(S)-1-isobutoxy-1-oxopropan-2-aminium dodecyl sulfate] , the logged mass density turned out to be 1045.48

So for CC(C)OC(=O)[C@@H]([NH3+])C(C)C.CCCCCCCCCCCCOS(=O)(=O)[O-] , the logged mass density turned out to be 1029.74

So for CC(C)OC(=O)CC[C@H]([NH3+])C(=O)OC(C)C.CCCCCCCCCCCCOS(=O)(=O)[O-] , the logged mass density turned out to be 1054.11

----------
conditions: 318.15 K; 101.33 kPa; Liquid; Sing-around technique in a fixed-path interferometer
± gives the expanded uncertainty stated by the source.
Field: speed of sound. Provide a value for each of the compounds that follow.
Quote the value and follow it with the unit of measurement.

So for CC(C)OC(=O)C[NH3+].CCCCCCCCCCCCOS(=O)(=O)[O-] [2-isopropoxy-2-oxoethan-1-aminium dodecyl sulfate] , the logged speed of sound turned out to be 1320.9 ± 5 m/s

So for CC(C)OC(=O)[C@@H]([NH3+])C(C)C.CCCCCCCCCCCCOS(=O)(=O)[O-] , the logged speed of sound turned out to be 1333.2 ± 5 m/s

So for CC(C)COC(=O)[C@@H]1CCC[NH2+]1.CCCCCCCCCCCCOS(=O)(=O)[O-] [(S)-2-(isobutoxycarbonyl)pyrrolidinium dodecyl sulfate] , the logged speed of sound turned out to be 1366.1 ± 5 m/s

So for CC(C)COC(=O)C[NH3+].CCCCCCCCCCCCOS(=O)(=O)[O-] [2-isobutoxy-2-oxoethan-1-aminium dodecyl sulfate] , the logged speed of sound turned out to be 1323 ± 5 m/s

So for CC(C)COC(=O)[C@H](C)[NH3+].CCCCCCCCCCCCOS(=O)(=O)[O-] [(S)-1-isobutoxy-1-oxopropan-2-aminium dodecyl sulfate] , the logged speed of sound turned out to be 1325.8 ± 5 m/s

So for CC(C)OC(=O)[C@@H]1CCC[NH2+]1.CCCCCCCCCCCCOS(=O)(=O)[O-] [(S)-2-(isopropoxycarbonyl)pyrrolidin-1-ium dodecyl sulfate] , the logged speed of sound turned out to be 1355.5 ± 5 m/s

So for CC(C)COC(=O)[C@@H](N)C(C)C.CCCCCCCCCCCCOS(=O)(=O)O [isobutyl L-valinate dodecyl sulfate] , the logged speed of sound turned out to be 1350.9 ± 5 m/s

So for CC(C)OC(=O)CC[C@H]([NH3+])C(=O)OC(C)C.CCCCCCCCCCCCOS(=O)(=O)[O-] , the logged speed of sound turned out to be 1312 ± 5 m/s

----------
assay: refractive index (Na D-line) (dimensionless); settings: 328.15 K; 101.33 kPa; Liquid; Standard Abbe refractometry
observedProperty: refractive index
A bare number is all that is needed in reply.

So for CC(C)OC(=O)C[NH3+].CCCCCCCCCCCCOS(=O)(=O)[O-] [2-isopropoxy-2-oxoethan-1-aminium dodecyl sulfate] , the logged refractive index turned out to be 1.4497

So for CC(C)OC(=O)[C@@H]1CCC[NH2+]1.CCCCCCCCCCCCOS(=O)(=O)[O-] [(S)-2-(isopropoxycarbonyl)pyrrolidin-1-ium dodecyl sulfate] , the logged refractive index turned out to be 1.4446

So for CC(C)OC(=O)[C@@H]([NH3+])C(C)C.CCCCCCCCCCCCOS(=O)(=O)[O-] , the logged refractive index turned out to be 1.4434

So for CC(C)COC(=O)[C@@H]1CCC[NH2+]1.CCCCCCCCCCCCOS(=O)(=O)[O-] [(S)-2-(isobutoxycarbonyl)pyrrolidinium dodecyl sulfate] , the logged refractive index turned out to be 1.4452

So for CC(C)COC(=O)[C@@H](N)C(C)C.CCCCCCCCCCCCOS(=O)(=O)O [isobutyl L-valinate dodecyl sulfate] , the logged refractive index turned out to be 1.4438

So for CC(C)OC(=O)CC[C@H]([NH3+])C(=O)OC(C)C.CCCCCCCCCCCCOS(=O)(=O)[O-] , the logged refractive index turned out to be 1.4442

So for CC(C)COC(=O)[C@H](C)[NH3+].CCCCCCCCCCCCOS(=O)(=O)[O-] [(S)-1-isobutoxy-1-oxopropan-2-aminium dodecyl sulfate] , the logged refractive index turned out to be 1.4397

So for CC(C)COC(=O)CC[C@H]([NH3+])C(=O)OCC(C)C.CCCCCCCCCCCCOS(=O)(=O)[O-] , the logged refractive index turned out to be 1.4453

So for CC(C)COC(=O)C[NH3+].CCCCCCCCCCCCOS(=O)(=O)[O-] [2-isobutoxy-2-oxoethan-1-aminium dodecyl sulfate] , the logged refractive index turned out to be 1.4462
